Data provenance is patent US20200115416A1.

- assay_system: mouse melanocortin-1 receptor (mouse, UniProt Q01727 1-315)
- Sequence (Q01727 whole entry): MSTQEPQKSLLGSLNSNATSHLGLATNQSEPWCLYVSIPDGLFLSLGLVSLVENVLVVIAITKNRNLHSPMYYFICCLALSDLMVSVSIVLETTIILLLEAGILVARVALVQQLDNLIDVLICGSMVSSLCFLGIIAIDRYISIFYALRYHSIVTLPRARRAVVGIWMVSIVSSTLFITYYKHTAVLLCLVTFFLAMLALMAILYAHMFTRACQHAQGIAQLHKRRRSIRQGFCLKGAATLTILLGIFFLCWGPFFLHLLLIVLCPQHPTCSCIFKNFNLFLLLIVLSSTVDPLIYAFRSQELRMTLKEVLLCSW
- assay_procedure: cell-based or functional assay
Square brackets hold non-standard residues; d marks the D form. Nle = CCCC[C@H](N)C(=O)O; Dap = NC[C@H](N)C(=O)O
Checkbox rule: partial agonist, % receptor stimulation lower than 80% = class 1; partial agonist, % receptor stimulation not lower than 80% = class 0.

Solved entries (count: 4):
Request: Field: below-cutoff. Rule: recorded partial agonist, % receptor stimulation strictly less than 80%. Subject: PRFFXAFP (head-to-tail cyclic; hPhe at 4; Dap at 5; DPro at 8) [c[Pro-Arg-Phe-hPhe-Dap-Ala-Phe-DPro]]
Result: class 1

Request: Next entry: cyclo(PRFF[Dap]SF[dP]) (SMILES N=C(N)NCCC[C@@H]1NC(=O)[C@@H]2CCCN2C(=O)[C@H]2CCCN2C(=O)[C@H](Cc2ccccc2)NC(=O)[C@H](CO)NC(=O)[C@H](CN)NC(=O)[C@H](Cc2ccccc2)NC(=O)[C@H](Cc2ccccc2)NC1=O) [c[Pro-Arg-Phe-Phe-Dap-Ser-Phe-DPro]]
Result: class 0

Request: Next entry: cyclo(PRFFRAF[dP]) [c[Pro-Arg-Phe-Phe-Arg-Ala-Phe-DPro]]
Result: class 1

Request: Next entry: cyclo(PRFFNS[Nle][dP]) (SMILES CCCC[C@@H]1NC(=O)[C@H](CO)NC(=O)[C@H](CC(N)=O)NC(=O)[C@H](Cc2ccccc2)NC(=O)[C@H](Cc2ccccc2)NC(=O)[C@H](CCCNC(=N)N)NC(=O)[C@@H]2CCCN2C(=O)[C@H]2CCCN2C1=O) [c[Pro-Arg-Phe-Phe-Asn-Ser-Nle-DPro]]
Result: class 1

Continue with the next binder.
Request: Field: below-cutoff. Rule: recorded partial agonist, % receptor stimulation strictly less than 80%. Subject: cyclo(PRFFNA[Nle][dP]) [c[Pro-Arg-Phe-Phe-Asn-Ala-Nle-DPro]]
Result: class 1
